- target: CYP2D6 (Homo sapiens)
- Sequence (P10635 whole entry): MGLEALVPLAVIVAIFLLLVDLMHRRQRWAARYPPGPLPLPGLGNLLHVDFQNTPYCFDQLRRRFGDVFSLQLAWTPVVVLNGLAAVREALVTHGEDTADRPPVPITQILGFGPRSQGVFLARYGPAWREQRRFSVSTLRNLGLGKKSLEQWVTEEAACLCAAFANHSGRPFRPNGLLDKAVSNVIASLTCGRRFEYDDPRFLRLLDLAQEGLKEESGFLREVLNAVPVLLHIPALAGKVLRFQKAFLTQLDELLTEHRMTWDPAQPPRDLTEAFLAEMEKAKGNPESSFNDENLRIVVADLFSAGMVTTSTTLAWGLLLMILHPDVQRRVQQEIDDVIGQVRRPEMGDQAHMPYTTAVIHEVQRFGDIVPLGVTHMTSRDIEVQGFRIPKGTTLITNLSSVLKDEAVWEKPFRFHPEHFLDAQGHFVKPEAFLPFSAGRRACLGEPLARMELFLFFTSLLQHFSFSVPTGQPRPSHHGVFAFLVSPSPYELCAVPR
- protocol text: Inhibition of CYP2D6 (unknown origin) at 10 uM relative to control
- Format: ADME
property name: inhibition at 10 µM (%)
Note: unit % is implicit; provide only the numeric part.

Suppose we examine the molecule CCc1cc(=O)[nH]c(-n2nc(C)cc2NC(=O)c2cc(C)ccc2F)n1 ; what inhibition at 10 µM value has been reported?
0.3

====

Exercise: for every item that follows, state its recorded inhibition.
- target: Adenylate cyclase type 8 (Homo sapiens)
- Sequence (P40145 whole entry): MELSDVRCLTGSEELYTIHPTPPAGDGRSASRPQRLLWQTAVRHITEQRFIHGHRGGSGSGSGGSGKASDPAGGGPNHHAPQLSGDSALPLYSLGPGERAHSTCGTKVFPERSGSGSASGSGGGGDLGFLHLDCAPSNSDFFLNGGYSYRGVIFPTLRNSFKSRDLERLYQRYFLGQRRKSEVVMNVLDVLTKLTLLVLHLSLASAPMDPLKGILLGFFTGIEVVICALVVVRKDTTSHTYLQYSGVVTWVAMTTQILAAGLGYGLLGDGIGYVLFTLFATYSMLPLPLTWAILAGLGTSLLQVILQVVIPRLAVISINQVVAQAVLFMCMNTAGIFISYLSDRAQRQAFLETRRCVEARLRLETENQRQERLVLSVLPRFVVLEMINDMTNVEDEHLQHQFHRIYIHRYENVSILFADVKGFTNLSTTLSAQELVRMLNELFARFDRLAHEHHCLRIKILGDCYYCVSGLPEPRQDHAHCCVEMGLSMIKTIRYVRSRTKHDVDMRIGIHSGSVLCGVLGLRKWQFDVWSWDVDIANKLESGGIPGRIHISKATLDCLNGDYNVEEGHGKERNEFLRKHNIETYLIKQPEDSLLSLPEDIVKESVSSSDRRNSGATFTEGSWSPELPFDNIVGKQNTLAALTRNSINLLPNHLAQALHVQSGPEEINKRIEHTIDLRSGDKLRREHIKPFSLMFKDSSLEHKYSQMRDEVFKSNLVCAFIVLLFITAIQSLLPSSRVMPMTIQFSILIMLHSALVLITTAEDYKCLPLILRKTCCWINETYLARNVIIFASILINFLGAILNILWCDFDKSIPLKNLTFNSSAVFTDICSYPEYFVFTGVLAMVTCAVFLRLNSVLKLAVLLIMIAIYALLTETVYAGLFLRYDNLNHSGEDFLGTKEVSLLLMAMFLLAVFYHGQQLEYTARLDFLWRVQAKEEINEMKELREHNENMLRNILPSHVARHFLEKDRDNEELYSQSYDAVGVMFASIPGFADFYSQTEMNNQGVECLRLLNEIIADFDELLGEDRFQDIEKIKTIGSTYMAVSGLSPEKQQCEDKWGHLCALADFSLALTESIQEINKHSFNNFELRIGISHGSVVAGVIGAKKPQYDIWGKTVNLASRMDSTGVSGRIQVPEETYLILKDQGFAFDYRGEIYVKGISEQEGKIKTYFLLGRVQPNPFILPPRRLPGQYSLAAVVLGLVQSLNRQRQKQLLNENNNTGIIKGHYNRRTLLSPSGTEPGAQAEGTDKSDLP
- protocol text: Inhibition of Ca2+/ CAM stimulated human AC8 activity expressed in AC3 and AC6-knockout HEK293 cells assessed as A23187 stimulated cAMP accumulation incubated for 30 mins followed by […] in presence of IBMX for 1 hr by HTRF assay relative to control
- Assay type: cell-based
- experimental context: time 90.0 min

Suppose we examine the molecule CCc1cc(=O)[nH]c(-n2nc(C)cc2NC(=O)c2ccccc2F)n1 ; what inhibition value has been reported?
46%

Suppose we examine the molecule CCc1cc(=O)[nH]c(-n2nc(C)cc2NC(=O)c2ccccc2C)n1 ; what inhibition value has been reported?
11%

Suppose we examine the molecule CCc1cc(=O)[nH]c(-n2nc(C)cc2NC(=O)c2ccccc2)n1 ; what inhibition value has been reported?
0%

Suppose we examine the molecule CCc1cc(=O)[nH]c(-n2nc(C)cc2NC(=O)c2cccc(C(F)(F)F)c2)n1 ; what inhibition value has been reported?
41%

Suppose we examine the molecule CCc1cc(=O)[nH]c(-n2nc(C)cc2NC(=O)c2cccc(Cl)c2)n1 ; what inhibition value has been reported?
48%

Suppose we examine the molecule CCc1cc(=O)[nH]c(-n2nc(C)cc2NC(=O)c2ccc(Cl)cc2)n1 ; what inhibition value has been reported?
53%

Suppose we examine the molecule CCc1cc(=O)[nH]c(-n2nc(C)cc2NC(=O)c2cccc(-c3ccccc3)c2)n1 ; what inhibition value has been reported?
37%

Suppose we examine the molecule CCc1cc(=O)[nH]c(-n2nc(C)cc2NC(=O)c2ccc(C)c(C)c2)n1 ; what inhibition value has been reported?
27%

Suppose we examine the molecule CCc1cc(=O)[nH]c(-n2nc(C)cc2NC(=O)c2cccc(OC)c2)n1 ; what inhibition value has been reported?
5%

Suppose we examine the molecule CCc1cc(=O)[nH]c(-n2nc(C)cc2NC(=O)Cc2cccc(C)c2)n1 ; what inhibition value has been reported?
59%

Suppose we examine the molecule CCc1cc(=O)[nH]c(-n2nc(C)cc2NC(=O)c2cccc(C)c2F)n1 ; what inhibition value has been reported?
9%

Suppose we examine the molecule CCc1cc(=O)[nH]c(-n2nc(C)cc2NC(=O)c2cccc(C(C)C)c2)n1 ; what inhibition value has been reported?
28%

Suppose we examine the molecule CCc1cc(=O)[nH]c(-n2nc(C)cc2NC(=O)c2cccc(C)c2)n1 ; what inhibition value has been reported?
27%

Suppose we examine the molecule CCc1ccc(C(=O)Nc2cc(C)nn2-c2nc(CC)cc(=O)[nH]2)cc1 ; what inhibition value has been reported?
19%

Suppose we examine the molecule CCc1cc(=O)[nH]c(-n2nc(C)cc2NC(=O)c2ccccn2)n1 ; what inhibition value has been reported?
46%

Suppose we examine the molecule CCc1cc(=O)[nH]c(-n2nc(C)cc2NC(=O)c2ccc(C)cc2)n1 ; what inhibition value has been reported?
27%

Suppose we examine the molecule CCc1cc(=O)[nH]c(-n2nc(C)cc2NC(=O)c2ccc(F)cc2)n1 ; what inhibition value has been reported?
52%

Suppose we examine the molecule CCc1cc(=O)[nH]c(-n2nc(C)cc2NC(=O)c2ccc(OC)cc2)n1 ; what inhibition value has been reported?
0%

Suppose we examine the molecule CCOc1cccc(C(=O)Nc2cc(C)nn2-c2nc(CC)cc(=O)[nH]2)c1 ; what inhibition value has been reported?
11%

Suppose we examine the molecule CCc1cc(=O)[nH]c(-n2nc(C)cc2NC(=O)c2ccc(N(C)C)cc2)n1 ; what inhibition value has been reported?
39%

Suppose we examine the molecule CCc1cccc(C(=O)Nc2cc(C)nn2-c2nc(CC)cc(=O)[nH]2)c1 ; what inhibition value has been reported?
12%
